Source listed as ChEMBL document CHEMBL1143817.

# assay.notes: Cmax in human term neonates at 15 mg/kg, im administered every 12 hrs after 24 hrs
# Type: ADME, organism-based
# Parameters: dose 15 mg/kg, route intramuscular
# stated.conditions: in vivo
value.kind: Cmax (ng/mL)
Answers are plain numbers, in ng/mL.

Report Cmax, nothing else, for this compound: CC1(C)S[C@@H]2[C@H](NC(=O)Cc3ccccc3)C(=O)N2[C@H]1C(=O)O 22000

====

# assay.notes: AUC (0 to 12) in human very low birth weight preterm neonates at 28 mg/kg, iv administered every 12 hrs after 24 hrs
# Format: ADME, organism-based
# Design: time < 12 hr, dose 28 mg/kg, route intravenous
# stated.conditions: plasma
value.kind: AUC at 12 h (µg·h/mL)
Give bare numbers, in µg·h/mL.

Read off the recorded AUC at 12 h for CC1(C)S[C@@H]2[C@H](NC(=O)Cc3ccccc3)C(=O)N2[C@H]1C(=O)O [PENICILLIN G] 389
